assay-system: OsSMF1 (Oryza sativa, UniProt Q6ZLB0 1-436)
Sequence: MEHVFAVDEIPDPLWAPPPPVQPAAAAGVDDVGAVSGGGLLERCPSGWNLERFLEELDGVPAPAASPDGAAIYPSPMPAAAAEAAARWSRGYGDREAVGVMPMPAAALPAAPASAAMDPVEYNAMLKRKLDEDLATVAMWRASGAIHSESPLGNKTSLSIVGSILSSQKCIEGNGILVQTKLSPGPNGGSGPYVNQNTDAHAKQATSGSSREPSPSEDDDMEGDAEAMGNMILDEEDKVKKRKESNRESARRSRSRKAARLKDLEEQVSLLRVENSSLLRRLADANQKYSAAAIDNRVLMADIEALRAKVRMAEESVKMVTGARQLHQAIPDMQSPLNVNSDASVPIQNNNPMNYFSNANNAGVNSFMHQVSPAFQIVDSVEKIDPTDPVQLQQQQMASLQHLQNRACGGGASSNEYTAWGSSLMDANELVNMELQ
assay-overview: protein-binding microarray (RPBM); PBS, 2% BSA, 51.3 ng/ul salmon testes DNA, 50 uM zinc acetate, 200 nM TF, 25 C, 1 h; high values mean tight binding
conditions: protein: recombinant; tags: N-terminal polyhistidine and DsRed monomer fusion (pET32a); chain copies: 2; label: CyDye5-dUTP incorporated in the synthesized complementary strand; 3' TTTTT single-stranded linker to array surface; dsDNA, one strand shown
In all, about 39,000 sequences were measured (“fluorescence intensity (a.u.)”: median about 4,300, highest 2% from about 39,000 on). This excerpt belongs to a sample that is enriched for the highest values.
endpoint-name: binding signal

Some entries whose results are on file:
[[record]]
residues = "AGATCGACACGTTAGTCTACACACCTATGCGTGCCTATGCCGGAGTCACCTAGTGCAG"
endpoint_name = "binding signal"
readout_value = "3580 fluorescence intensity (a.u.)"

[[record]]
residues = "TGCTGACTATGATGCCACGTCAGCGAAACCACCCATATATCGGAGTCACCTAGTGCAG"
endpoint_name = "binding signal"
readout_value = "23000 fluorescence intensity (a.u.)"

[[record]]
residues = "CTCAAAACCACACCGTTAAATGTTTTACCCTACTCTCGTACGGAGTCACCTAGTGCAG"
endpoint_name = "binding signal"
readout_value = "39200 fluorescence intensity (a.u.)"


// fetch OsSMF1 (Oryza sativa, UniProt Q6ZLB0 1-436) binding signal for GCTTGCTTGCTTGCATCCTCCTCACATTCACCACGAGGTTCGGAGTCACCTAGTGCAG 3670 fluorescence intensity (a.u.)

So what binding signal did TTAATTAATTAACGTATGTACTCAGGAATTATATATAATACGGAGTCACCTAGTGCAG get with OsSMF1 (Oryza sativa, UniProt Q6ZLB0 1-436)? 35600 fluorescence intensity (a.u.)

// map CCATCACCTCGTCGTCCCCGTCACCGCGCCTCTCCCGCTGCGGAGTCACCTAGTGCAG to recorded binding signal (system: OsSMF1 (Oryza sativa, UniProt Q6ZLB0 1-436)) 3780 fluorescence intensity (a.u.)

Identify the measured binding signal of AGCAAACATAATTAACATATATATAATAAAGCTCAAAGAGCGGAGTCACCTAGTGCAG for OsSMF1 (Oryza sativa, UniProt Q6ZLB0 1-436). 3780 fluorescence intensity (a.u.)

Which binding signal is reported with OsSMF1 (Oryza sativa, UniProt Q6ZLB0 1-436) for this entry: TTCATGCGCCCACATGACGTAGTGAATTAGTGGACTATGTCGGAGTCACCTAGTGCAG ? 4570 fluorescence intensity (a.u.)

Item CTGACGACCCGGATCAACCATTGGCAGCAGCTCCTGTACACGGAGTCACCTAGTGCAG with OsSMF1 (Oryza sativa, UniProt Q6ZLB0 1-436) - binding signal? 3580 fluorescence intensity (a.u.)

Entry TTTGTCCTACGTGGCGTACGCGTGGCAATCCAGTCATAATCGGAGTCACCTAGTGCAG , system OsSMF1 (Oryza sativa, UniProt Q6ZLB0 1-436): what binding signal was measured? 20400 fluorescence intensity (a.u.)

API: value(readout= binding signal, system= OsSMF1 (Oryza sativa, UniProt Q6ZLB0 1-436), query= AATGACAGGACAACGAGGACACCGTGGATATTAAAGACCCCGGAGTCACCTAGTGCAG ) 4140 fluorescence intensity (a.u.)

Record lookup: for OsSMF1 (Oryza sativa, UniProt Q6ZLB0 1-436), what binding signal belongs to TTTTAATTCAAATGCCACCTAAGCGCCACGTCAACCCTATCGGAGTCACCTAGTGCAG ? 23500 fluorescence intensity (a.u.)

Which binding signal is reported with OsSMF1 (Oryza sativa, UniProt Q6ZLB0 1-436) for this entry: AGCTAGTACCTCACATGCATTCATCTTGCTTGCAATCCGTCGGAGTCACCTAGTGCAG ? 45100 fluorescence intensity (a.u.)

Recall the recorded binding signal for AAACATCATATCAAATCTTTGGACATAGGTATAGAATATTCGGAGTCACCTAGTGCAG with OsSMF1 (Oryza sativa, UniProt Q6ZLB0 1-436) and state it. 8890 fluorescence intensity (a.u.)
